biological target: Toll-like receptor 2 (Homo sapiens, UniProt O60603)
Sequence (O60603 whole entry): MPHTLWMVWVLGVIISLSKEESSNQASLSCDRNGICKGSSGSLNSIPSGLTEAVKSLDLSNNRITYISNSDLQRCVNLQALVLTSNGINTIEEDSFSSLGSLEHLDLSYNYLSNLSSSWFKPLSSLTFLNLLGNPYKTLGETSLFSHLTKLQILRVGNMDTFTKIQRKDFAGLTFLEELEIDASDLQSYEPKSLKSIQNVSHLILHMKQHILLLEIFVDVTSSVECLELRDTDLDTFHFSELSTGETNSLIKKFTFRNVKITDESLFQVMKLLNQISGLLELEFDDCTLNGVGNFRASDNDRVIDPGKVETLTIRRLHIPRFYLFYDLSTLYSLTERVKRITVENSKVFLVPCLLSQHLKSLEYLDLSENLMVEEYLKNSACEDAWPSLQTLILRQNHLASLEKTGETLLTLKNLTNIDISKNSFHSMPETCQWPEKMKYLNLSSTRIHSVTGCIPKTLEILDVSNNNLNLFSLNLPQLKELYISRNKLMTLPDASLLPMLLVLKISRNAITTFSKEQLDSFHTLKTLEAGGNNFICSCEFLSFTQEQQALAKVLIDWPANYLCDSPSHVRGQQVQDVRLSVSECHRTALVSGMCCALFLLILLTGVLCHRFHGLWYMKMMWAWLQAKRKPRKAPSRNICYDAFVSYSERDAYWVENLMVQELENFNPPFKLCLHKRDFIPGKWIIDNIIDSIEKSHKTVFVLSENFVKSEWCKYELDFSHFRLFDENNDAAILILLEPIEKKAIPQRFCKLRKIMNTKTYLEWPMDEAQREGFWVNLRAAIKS
Property Name: pKd
Numbers only, as −log10 of the molar value.

Request - read-out pKd | tested on Toll-like receptor 2 (Homo sapiens, UniProt O60603) | compound [O-][S+](Cc1ccc(F)cc1)c1ccc2cc(Br)ccc2n1 (stereo unspecified) 5.45

====

test system: AHH-1; test: Anti-iradiation activity against human AHH-1 cells assessed as cell viability at 10 micromol preincubated with compound for 24 hrs followed by irradiation with 8 Gy and measured after 24 hrs by CCK-8 assay; assay type: functional; details: dose 10 µmol; time 48 hrs
Property Name: Activity (%)
Answers are plain numbers, in %.

Worked cases, Activity given:
molecule=O=S(=O)(Cc1ccc(Cl)cc1)c1ccc2cc(Br)ccc2n1 property_name=Activity readout_number=27.81
molecule=O=S(=O)(Cc1ccc(F)cc1)c1ccc2cc(F)ccc2n1 property_name=Activity readout_number=27.51
molecule="O=C(O)c1ccc(C[S+]([O-])c2ccc3cc(F)ccc3n2)cc1 (stereo unspecified)" property_name=Activity readout_number=30.18

Would you be so kind as to report Activity for each listed record?
1. Fc1ccc(CSc2ccc3cc(Br)ccc3n2)cc1
2. [O-][S+](Cc1ccc(F)cc1)c1ccc2cc(Br)ccc2n1 (stereo unspecified)
3. [O-][S+](Cc1ccc(Cl)cc1)c1ccc2cc(Br)ccc2n1 (stereo unspecified)

1: 26.21; 2: 55.86; 3: 30.63
